B1: Twister Ribozyme (parent)
chain: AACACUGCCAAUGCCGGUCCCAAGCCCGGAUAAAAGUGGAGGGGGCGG

- Variants of: B1
- protocol_notes: self-cleavage, relative activity (ratio to wild type); higher = more cleavage; co-transcriptional
// class assignment uses self-cleavage with these ranges: low-valued: < 0.1; mid-valued: ≥ 0.1 and < 0.3; high-valued: ≥ 0.3

{"seq": "AACACCGCGAAUGCCGGUCCCAAGCCCGGAUAAAAGUGGAGGGGGCGG [U6C C9G]", "cat": "mid-valued"}
{"seq": "AACACUGCCAAUGCCGGUCCCAAGCUCGGAUAAAAGUGGAGGGGGCCG [C26U G47C]", "cat": "mid-valued"}
{"seq": "AACACCGCCUAUGCCGGUCCCAAGCCCGGAUAAAAGUGGAGGGGGCGG [U6C A10U]", "cat": "high-valued"}
{"seq": "AACACUGCCAAUGCCCGUCCCAAGCCCGGAUAAAAGUGGAGUGGGCGG [G16C G42U]", "cat": "mid-valued"}
{"seq": "AACACUGCCAAUGCCGGUCCCAAGGCCGGAUAAAAGUGGAGUGGGCGG [C25G G42U]", "cat": "mid-valued"}
{"seq": "AUCACUGCCAAUGCCGGUCCCAAGCCCGGAUAACAGUGGAGGGGGCGG [A2U A34C]", "cat": "mid-valued"}
{"seq": "GACACUGCCAAUGCCGGUACCAAGCCCGGAUAAAAGUGGAGGGGGCGG [A1G C19A]", "cat": "mid-valued"}
{"seq": "AACACUGCCAAUGCCGGUCCCAAGCCCGGAUAACAGUGGAGUGGGCGG [A34C G42U]", "cat": "mid-valued"}
{"seq": "UACACUGCCAAUGCCGAUCCCAAGCCCGGAUAAAAGUGGAGGGGGCGG [A1U G17A]", "cat": "low-valued"}
{"seq": "AACACUGCCAAUGCCGGUCCCAAGCCCGGAUAAAAGUGGAGGGGGCCA [G47C G48A]", "cat": "high-valued"}
{"seq": "AACACUGCCAAUGCCGGGCCCCAGCCCGGAUAAAAGUGGAGGGGGCGG [U18G A22C]", "cat": "low-valued"}
{"seq": "AACACUGCCAAUGCCGGUCCCAAGCCCGAUUAAAAGUGGAGGGGGCGG [G29A A30U]", "cat": "high-valued"}
{"seq": "AACAGUGCCAAUGCCGGUCGCAAGCCCGGAUAAAAGUGGAGGGGGCGG [C5G C20G]", "cat": "low-valued"}
{"seq": "AACACUGCCAAUGUCGGUCCCAAGCCCAGAUAAAAGUGGAGGGGGCGG [C14U G28A]", "cat": "high-valued"}
{"seq": "AGCACUGCCAAUGCCGGUCCCAAGCCCGGAUAAAAGGGGAGGGGGCGG [A2G U37G]", "cat": "mid-valued"}
{"seq": "AACACUGCCAAUGCCGGUUCCAAGCCCGGAUAAAAGUGGAGGGGGCUG [C19U G47U]", "cat": "high-valued"}
{"seq": "AACACUGCCAAUGCCGGUCCCAAGCCCGGAUAAAAGUUGAGGGGACGG [G38U G45A]", "cat": "high-valued"}
{"seq": "AACACUGCCAAUGCCGUUCCCAAUCCCGGAUAAAAGUGGAGGGGGCGG [G17U G24U]", "cat": "low-valued"}
{"seq": "AACACUGCCAAUGCCGUUCCCAAGCCCGGAUAAAAGGGGAGGGGGCGG [G17U U37G]", "cat": "mid-valued"}
{"seq": "AACACUGCCAAUACCGGUCCCAAGCCCGGAUAAAAGUGGAAGGGGCGG [G13A G41A]", "cat": "mid-valued"}
{"seq": "AACACUGCCAAUGCCGCUCCCAAACCCGGAUAAAAGUGGAGGGGGCGG [G17C G24A]", "cat": "low-valued"}
{"seq": "AACACUGCCAAUGCCGGUCCCAAGCCCAGAUAAAAGUGGACGGGGCGG [G28A G41C]", "cat": "mid-valued"}
{"seq": "AACACUGCCAAUGCCGGUGCCAAGCCCGGAUAAAAGUGGAGGGGGCUG [C19G G47U]", "cat": "mid-valued"}
{"seq": "AACACUGCUAAUGCCGGUCCCAAGCCCGGAUAAUAGUGGAGGGGGCGG [C9U A34U]", "cat": "high-valued"}
{"seq": "AACACUGCCUAUGCCGGUCCCAAGCCCGGAUAAAAAUGGAGGGGGCGG [A10U G36A]", "cat": "high-valued"}
{"seq": "AACACUGCCAAUGCCUGUCCCAAGCCCGGAUAAAAGUGGAGGGGCCGG [G16U G45C]", "cat": "high-valued"}
{"seq": "AACACUGCCAAUGCCGGUCCCUAGCCCAGAUAAAAGUGGAGGGGGCGG [A22U G28A]", "cat": "high-valued"}
{"seq": "AACACGGCCAAUGCCGGUCCCAAGCCCGGAAAAAAGUGGAGGGGGCGG [U6G U31A]", "cat": "mid-valued"}
{"seq": "AACACUGCCAAUGCCGCUCCCAAGCCCGGAUUAAAGUGGAGGGGGCGG [G17C A32U]", "cat": "mid-valued"}
{"seq": "AACACUGCCAAUGCCGGUCUCAAGCCCUGAUAAAAGUGGAGGGGGCGG [C20U G28U]", "cat": "high-valued"}
{"seq": "AACACUGCCAAUGCCGGUCCCAAGCCCGGAUUAAAGUGGAGGGGGCGC [A32U G48C]", "cat": "high-valued"}
{"seq": "AAUACUGCCAAUGCCGGUCCCAAGCCCGGAUAAAAGCGGAGGGGGCGG [C3U U37C]", "cat": "mid-valued"}
{"seq": "AACAUUGCCAAUGCCGGUGCCAAGCCCGGAUAAAAGUGGAGGGGGCGG [C5U C19G]", "cat": "mid-valued"}
{"seq": "AACAUUGCCAAUGCCGGUCCCAAGCCCGGCUAAAAGUGGAGGGGGCGG [C5U A30C]", "cat": "high-valued"}
{"seq": "AAAACUGCCAAUGCCGGUCCCAAGCCCGGAUAAAAGUGCAGGGGGCGG [C3A G39C]", "cat": "low-valued"}
{"seq": "AACACUGCCAAUGACGGUCCCAAGCCCGGAUAAAAAUGGAGGGGGCGG [C14A G36A]", "cat": "high-valued"}
{"seq": "AACACUGCCAAUGCCGGUCCCAAACCCGGAUAAAAGUGUAGGGGGCGG [G24A G39U]", "cat": "low-valued"}
{"seq": "AACACUGCCAAUGCCGGUCCCAAGCCCGGAUAAUAGUGGAAGGGGCGG [A34U G41A]", "cat": "mid-valued"}
{"seq": "AACACUGCCAAUGCCGGGCCCAAGCCCGGCUAAAAGUGGAGGGGGCGG [U18G A30C]", "cat": "mid-valued"}
{"seq": "AACACUGCCAAUGCCGGUCCCAACCCCUGAUAAAAGUGGAGGGGGCGG [G24C G28U]", "cat": "low-valued"}
{"seq": "AACACUGCCAAUGCCGGUCCCAAGCCCGGAUACACGUGGAGGGGGCGG [A33C A35C]", "cat": "high-valued"}
